system: S. aureus strain USA300-0114; assay: AK assay 384-well format, Prestwick library screening; format: cell-based, Staphylococcus aureus; details: Staphylococcus aureus, USA300, 3 h; planktonic S. aureus; 50 μM final drug concentration; positive cutoff 3-fold increase; read-out: AK-based Prestwick library screening result, S. aureus (fold increase in extracellular AK activity)
Structures can show the parent of a compound that is named as a salt.
property-measured: fold induction at 50 µM

Below, 5 molecules whose answers are already recorded.
CC(=O)O[C@H]1C[C@@H]2CC[C@@H]3[C@H](CC[C@@]4(C)[C@H]3C[C@H]([N+]3(C)CCCCC3)[C@@H]4OC(C)=O)[C@@]2(C)C[C@@H]1[N+]1(C)CCCCC1 [Pancuronium bromide] :: 1.1
NS(=O)(=O)c1cc2c(cc1Cl)NC(CC1CCCC1)NS2(=O)=O (centres unmarked) [Cyclopenthiazide] :: 0.7
O=C(CCCN1CCN(c2ccccn2)CC1)c1ccc(F)cc1 :: 1.2
CNNCc1ccc(C(=O)NC(C)C)cc1 [Procarbazine hydrochloride] :: 1.1
NC(=O)c1cc[n+](CC2=C(C(=O)[O-])N3C(=O)[C@@H](NC(=O)Cc4cccs4)[C@H]3SC2)cc1 :: 1.6

Which fold induction at 50 µM is listed for CCC1(c2ccccc2)NC(=O)N(C)C1=O (centres unmarked) ?
1.1

Which fold induction at 50 µM is listed for c1cnc(N2CCN(Cc3ccc4c(c3)OCO4)CC2)nc1 [Piribedil hydrochloride] ?
0.6

Which fold induction at 50 µM is listed for C[C@]12CC[C@@H]3c4ccc(O)cc4CC[C@H]3[C@@H]1C[C@@H](O)[C@@H]2O ?
1.2
